Biological target: HLA-A*0202 (Homo sapiens, UniProt P04439, D140Y/D185E/D98H/E176V/E277Q/G131W/G231S/I119L/I121R/I166T/I218V/L180W/L300P/L318F/N151K/N90K/P208A/P217A/Q67R/Q86G/Q94H/R138H/R169H/T345S)
Assay: purified HLA class I binding assay, A*0202

>  <Compound>
CC(C)C[C@H](NC(=O)[C@H](CCCCN)NC(=O)[C@H](Cc1ccccc1)NC(=O)[C@H](CS)NC(=O)[C@H](Cc1c[nH]c2ccccc12)NC(=O)CNC(=O)[C@H](Cc1ccccc1)NC(=O)[C@@H](NC(=O)[C@H](CC(C)C)NC(=O)[C@@H]1CCCN1)[C@@H](C)O)C(=O)O

>  <IC50 [nM]>
741

$$$$
>  <Compound>
CC(C)C[C@H](NC(=O)[C@H](CCCCN)NC(=O)[C@H](Cc1ccccc1)NC(=O)[C@H](CS)NC(=O)[C@H](Cc1c[nH]c2ccccc12)NC(=O)CNC(=O)[C@H](Cc1ccccc1)NC(=O)[C@@H](NC(=O)[C@@H](N)CC(C)C)[C@@H](C)O)C(=O)N[C@H](C(=O)O)C(C)C [Peptide 1261.14]

>  <IC50 [nM]>
48.9

$$$$
>  <Compound>
CC[C@H](C)[C@H](NC(=O)[C@H](Cc1ccccc1)NC(=O)CNC(=O)CNC(=O)[C@@H](NC(=O)CNC(=O)CNC(=O)[C@@H](NC(=O)[C@H](CCSC)NC(=O)[C@@H](N)CCCCN)[C@@H](C)CC)[C@@H](C)CC)C(=O)O [Peptide 1261.17]

>  <IC50 [nM]>
54.4

$$$$
>  <Compound>
CC[C@H](C)[C@H](NC(=O)[C@H](C)N)C(=O)N[C@H](C(=O)N[C@@H](CCCNC(=N)N)C(=O)N[C@H](C(=O)N[C@@H](CC(C)C)C(=O)N[C@@H](CCC(N)=O)C(=O)N[C@@H](CCC(N)=O)C(=O)N[C@@H](CC(C)C)C(=O)O)[C@@H](C)CC)[C@@H](C)CC [Peptide 1261.11]

>  <IC50 [nM]>
22.6

$$$$

---

Biological target: HLA-A*2402 (Homo sapiens, UniProt P04439, D101N/D140Y/D185E/E176V/E190D/F33S/G103R/G107R/I119L/I121M/I306V/K335N/L105A/L180Q/L300P/N151K/N90K/Q86E/Q94H/R106L/R138H/R89G/T104I/T345S/V100E/W191G/Y123F)
Test: purified HLA class I binding assay, A*2402
Settings: HIV A24 supermotif peptides, Table X; A*2401; unit not given

>  <Seq>
QMAVFIIINF

>  <A*2401 (binding information)>
0.0190

$$$$
>  <Seq>
GYELIIPDKW

>  <A*2401 (binding information)>
0.0001

$$$$
>  <Seq>
IYQEPIKNL

>  <A*2401 (binding information)>
0.0520

$$$$
>  <Seq>
IWQLDCTIIL

>  <A*2401 (binding information)>
0.0095

$$$$

---

Target: HLA-A*0206 (Homo sapiens, UniProt P04439, D140Y/D185E/D98H/E176V/E277Q/F33Y/G131W/G231S/I119V/I121R/I166T/I218V/L300P/L318F/N151K/N90K/P208A/P217A/Q86G/Q94H/R138H/R169H/T345S)
Assay: purified HLA class I binding assay, A*0206
Value kind: IC50 (nM)

>  <Molecule>
CC[C@H](C)[C@H](NC(=O)CNC(=O)[C@H](Cc1c[nH]c2ccccc12)NC(=O)[C@@H](NC(=O)[C@@H](NC(=O)[C@H](CC(C)C)NC(=O)[C@H](CCC(N)=O)NC(=O)[C@H](CC(C)C)NC(=O)[C@@H](N)CC(C)C)[C@@H](C)O)C(C)C)C(=O)O [Peptide 1261.02]

>  <Test result>
24.7

$$$$
